Would you kindly list IC50 for each of these compounds?
MEASUREMENT_TARGET: human TLR8 (Homo sapiens (Human), UniProt Q9NR97)
Sequence (Q9NR97 27-1041): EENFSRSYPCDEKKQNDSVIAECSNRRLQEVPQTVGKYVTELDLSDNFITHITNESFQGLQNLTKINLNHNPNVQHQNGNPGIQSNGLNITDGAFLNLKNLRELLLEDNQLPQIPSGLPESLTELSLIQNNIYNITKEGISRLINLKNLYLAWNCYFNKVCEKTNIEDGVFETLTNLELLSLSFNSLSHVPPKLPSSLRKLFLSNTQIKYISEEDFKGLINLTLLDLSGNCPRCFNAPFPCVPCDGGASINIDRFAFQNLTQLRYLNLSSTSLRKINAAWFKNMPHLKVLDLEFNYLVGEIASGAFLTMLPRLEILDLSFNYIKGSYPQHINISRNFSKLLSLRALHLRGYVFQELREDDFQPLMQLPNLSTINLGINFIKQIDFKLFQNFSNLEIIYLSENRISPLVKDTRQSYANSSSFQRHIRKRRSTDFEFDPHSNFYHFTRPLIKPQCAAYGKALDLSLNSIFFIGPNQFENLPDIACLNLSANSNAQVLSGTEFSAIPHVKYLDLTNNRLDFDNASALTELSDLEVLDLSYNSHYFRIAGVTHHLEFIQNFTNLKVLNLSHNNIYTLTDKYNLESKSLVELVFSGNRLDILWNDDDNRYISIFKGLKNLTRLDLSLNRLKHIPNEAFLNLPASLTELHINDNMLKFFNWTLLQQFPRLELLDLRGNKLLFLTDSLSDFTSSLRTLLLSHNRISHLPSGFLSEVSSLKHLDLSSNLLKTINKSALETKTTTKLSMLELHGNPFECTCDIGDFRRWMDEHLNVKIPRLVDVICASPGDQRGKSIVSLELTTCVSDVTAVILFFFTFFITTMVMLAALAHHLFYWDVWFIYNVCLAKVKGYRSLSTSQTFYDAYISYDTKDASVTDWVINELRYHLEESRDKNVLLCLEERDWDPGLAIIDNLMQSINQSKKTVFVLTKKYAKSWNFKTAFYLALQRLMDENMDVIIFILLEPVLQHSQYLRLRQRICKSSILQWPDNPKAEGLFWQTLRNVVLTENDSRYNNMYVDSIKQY
EXPERIMENT_SUMMARY: TLR8 inhibition reporter assay (HEK-Blue SEAP)
TEST_PARAMETERS: read-out: TLR8 IC50; HEK-Blue human TLR8 cells, R848 15.9 μM
Give bare numbers, in nM.

For every listed record, write down its IC50.
1. Cc1c(-c2[nH]c3ccc(N4CCN(C(=O)CC(C)(C)N5CC6(COC6)C5)CC4)nc3c2C(C)C)cn2ncnc2c1C [Example 945]
2. Cc1c(-c2[nH]c3ccc(N4C[C@@H](C)N(C(=O)CN(CCO)C(C)(C)C)[C@H](C)C4)nc3c2C(C)C)cn2ncnc2c1C [Example 930]
3. Cc1c(-c2[nH]c3ccc(N4C[C@@H](C)N(CC(N)=O)C[C@H]4C)nc3c2C(C)C)cn2ncnc2c1C [Example 799]
4. CCN(C)CC(=O)N1CCN(c2ccc3[nH]c(-c4cn5ncnc5c(C)c4N)c(C(C)C)c3n2)C[C@H]1C [Example 942]
5. Cc1c(-c2[nH]c3ccc(N4CCN(C(=O)CN5CCC6(CCOC6)C5)CC4)nc3c2C(C)C)cn2ncnc2c1C (stereo not drawn) [Example 947]
6. CCCN1CC2(C1)CN(c1ccc3[nH]c(-c4cc(OC)c5ncnn5c4)c(C(C)C)c3n1)C2 [Example 1019]
7. Cc1c(-c2[nH]c3ccc(N4C[C@@H](C)N(C(=O)CN(C)C)C[C@H]4C)nc3c2C(C)C)cn2ncnc2c1C [Example 796]

0.94
7.4
21
3.4
0.66
16
15

For every listed record, write down its IC50.
1. Cc1c(-c2[nH]c3ccc(N4C5CNCC4COC5)nc3c2C(C)C)cn2ncnc2c1C [Example 972]
2. Cc1c(-c2[nH]c3ccc(N4CCN(CC(C)(C)O)C[C@@H]4C)nc3c2C(C)C)cn2ncnc2c1C [Example 802]

1: 3.1; 2: 0.65

###

MEASUREMENT_TARGET: UniProt:Q9NR96
EXPERIMENT_SUMMARY: TLR9 inhibition reporter assay (HEK-Blue SEAP)
TEST_PARAMETERS: read-out: TLR9 IC50; HEK-Blue cells overexpressing human TLR9, SEAP reporter, ODN2006 5 nM
METRIC_NAME: pIC50
Give bare numbers, as −log10 of the molar value.

// solved cases for pIC50 follow
MOLECULE	pIC50
COc1cc(-c2[nH]c3ccc(OC4CCN(C5CCOCC5)CC4)nc3c2C(C)C)cn2ncnc12	5.94
Cc1c(-c2[nH]c3ccc(C4CCC(NCCS(C)(=O)=O)CC4)nc3c2C(C)C)cn2ncnc2c1C (stereo not shown) [Example 450]	5.92

Moving on to another molecule below.
Entry under test: `COc1ccc(-c2[nH]c3ccc(C4CCNCC4)nc3c2C(C)C)cc1OC` . Its pIC50 was 6.18

###

MEASUREMENT_TARGET: human TLR7 (Homo sapiens (Human), UniProt Q9NYK1)
Sequence (Q9NYK1 27-1049): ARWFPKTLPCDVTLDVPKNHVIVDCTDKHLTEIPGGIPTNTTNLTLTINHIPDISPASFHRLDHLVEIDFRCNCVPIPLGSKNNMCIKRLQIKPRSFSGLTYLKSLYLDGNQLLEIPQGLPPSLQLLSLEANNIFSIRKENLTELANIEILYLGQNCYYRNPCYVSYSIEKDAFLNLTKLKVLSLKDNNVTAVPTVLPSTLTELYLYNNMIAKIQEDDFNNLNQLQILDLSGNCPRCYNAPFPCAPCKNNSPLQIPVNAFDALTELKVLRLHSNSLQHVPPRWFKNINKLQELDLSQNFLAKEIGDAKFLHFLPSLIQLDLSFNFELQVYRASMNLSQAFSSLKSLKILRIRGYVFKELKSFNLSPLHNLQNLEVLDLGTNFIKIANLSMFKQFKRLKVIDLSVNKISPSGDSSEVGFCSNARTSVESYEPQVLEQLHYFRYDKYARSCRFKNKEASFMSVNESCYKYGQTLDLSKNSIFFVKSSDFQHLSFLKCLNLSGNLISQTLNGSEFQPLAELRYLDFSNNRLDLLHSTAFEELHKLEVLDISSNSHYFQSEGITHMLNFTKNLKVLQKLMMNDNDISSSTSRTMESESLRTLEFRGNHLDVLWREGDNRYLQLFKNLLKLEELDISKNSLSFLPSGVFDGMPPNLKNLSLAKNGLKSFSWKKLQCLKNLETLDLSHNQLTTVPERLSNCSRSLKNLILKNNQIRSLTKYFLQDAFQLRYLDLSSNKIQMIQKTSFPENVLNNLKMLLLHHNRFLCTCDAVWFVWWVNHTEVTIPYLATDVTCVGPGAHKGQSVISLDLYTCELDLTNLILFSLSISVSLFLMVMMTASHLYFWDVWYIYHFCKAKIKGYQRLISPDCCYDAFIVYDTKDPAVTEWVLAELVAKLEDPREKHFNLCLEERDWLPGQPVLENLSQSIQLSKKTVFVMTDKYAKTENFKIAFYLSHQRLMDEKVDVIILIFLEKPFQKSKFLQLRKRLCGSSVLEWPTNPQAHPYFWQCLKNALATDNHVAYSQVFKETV
EXPERIMENT_SUMMARY: TLR7 inhibition reporter assay (HEK-Blue SEAP)
Format: cell-based
TEST_PARAMETERS: HEK-Blue human TLR7 cells, gardiquimod 7.5 μM
Would you kindly list log10 IC50 for each of these compounds?
The base-10 logarithm of IC50, taken with IC50 in pM, is what appears here.

// solved cases for log10 IC50 follow
COMPOUND	log10 IC50
[2H]C([2H])([2H])N(CC(=O)N1CCN(c2ccc3[nH]c(-c4cn5ncnc5c(C)c4C)c(C(C)C)c3n2)[C@H](C)C1)C([2H])([2H])[2H] [Example 838]	2.78
Cc1c(-c2[nH]c3ccc(N4CCN(C(=O)CN(C)C(C)C)CC4)nc3c2C(C)C)cn2ncnc2c1C [Example 872]	2.99
COc1cc(-c2[nH]c3ccc(N4CC5(CN(C)C5)C4)nc3c2C(C)C)cn2ncnc12 [Example 1017]	3.11
Cc1c(-c2[nH]c3ccc(C4CCC(N5CC(C)(C)C5)CC4)nc3c2C(C)C)cn2ncnc2c1C (stereo not shown) [Example 1040]	2.23
Cc1c(-c2[nH]c3ccc(N4CCN(C(=O)CCN(C)C)[C@H](C)C4)nc3c2C(C)C)cn2ncnc2c1C [Example 850]	2.86

For every listed record, write down its log10 IC50.
1. Cc1c(-c2[nH]c3ccc(N4C[C@H]5CC[C@@H]4CN5)nc3c2C(C)C)cn2ncnc2c1C [Example 980]
2. Cc1c(-c2[nH]c3ccc(N4C[C@H](C)N(CCC(N)=O)C[C@@H]4C)nc3c2C(C)C)cn2ncnc2c1C [Example 794]
3. Cc1c(-c2[nH]c3ccc(N4[C@H](C)CN(CCCS(C)(=O)=O)C[C@H]4C)nc3c2C(C)C)cn2ncnc2c1C [Example 869]
4. Cc1c(-c2[nH]c3ccc(N4CCN(C(=O)CN5CCCC5)[C@H](C)C4)nc3c2C(C)C)cn2ncnc2c1C [Example 941]
5. Cc1c(-c2[nH]c3ccc(N4CCN(CCC(N)=O)C[C@H]4C)nc3c2C(C)C)cn2ncnc2c1C [Example 807]

3.34
3.15
3.28
2.82
2.98

###

MEASUREMENT_TARGET: human TLR9 (Homo sapiens (Human))
Sequence (Q9NR96 26-1032): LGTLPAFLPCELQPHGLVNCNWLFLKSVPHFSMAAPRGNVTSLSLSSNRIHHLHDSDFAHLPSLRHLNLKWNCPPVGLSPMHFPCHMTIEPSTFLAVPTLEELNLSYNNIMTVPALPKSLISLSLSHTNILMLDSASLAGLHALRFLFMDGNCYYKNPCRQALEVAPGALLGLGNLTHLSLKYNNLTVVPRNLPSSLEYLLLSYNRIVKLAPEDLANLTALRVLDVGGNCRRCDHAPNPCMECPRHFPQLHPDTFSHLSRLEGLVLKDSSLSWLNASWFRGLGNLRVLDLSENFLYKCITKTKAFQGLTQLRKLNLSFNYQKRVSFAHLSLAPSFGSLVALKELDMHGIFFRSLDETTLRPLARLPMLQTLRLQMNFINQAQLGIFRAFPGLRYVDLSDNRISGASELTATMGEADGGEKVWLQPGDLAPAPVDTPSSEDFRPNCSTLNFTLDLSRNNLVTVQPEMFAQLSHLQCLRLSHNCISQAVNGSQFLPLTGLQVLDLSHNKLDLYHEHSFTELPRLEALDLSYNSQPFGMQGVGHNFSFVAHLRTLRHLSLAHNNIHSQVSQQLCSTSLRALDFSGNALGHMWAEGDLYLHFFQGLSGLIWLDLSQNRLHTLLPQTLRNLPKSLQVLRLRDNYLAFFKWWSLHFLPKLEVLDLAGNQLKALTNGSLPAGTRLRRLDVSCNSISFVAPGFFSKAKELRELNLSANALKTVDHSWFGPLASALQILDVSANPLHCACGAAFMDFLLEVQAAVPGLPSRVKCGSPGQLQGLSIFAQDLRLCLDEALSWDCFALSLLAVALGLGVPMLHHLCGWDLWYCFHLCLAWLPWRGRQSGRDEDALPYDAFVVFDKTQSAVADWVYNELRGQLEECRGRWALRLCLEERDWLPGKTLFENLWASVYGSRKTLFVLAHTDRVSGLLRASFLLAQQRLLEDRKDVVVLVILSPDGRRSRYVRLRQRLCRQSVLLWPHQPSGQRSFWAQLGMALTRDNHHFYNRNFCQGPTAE
EXPERIMENT_SUMMARY: TLR9 inhibition reporter assay (HEK-Blue SEAP)
TEST_PARAMETERS: read-out: TLR9 IC50; HEK-Blue human TLR9 cells, ODN2006 5 nM
Would you kindly list pIC50 for each of these molecules?
Give bare numbers, as −log10 of the molar value.

For every listed record, write down its pIC50.
1. Cc1c(-c2[nH]c3ccc(N4CCN(C(=O)CN5CCC5)C[C@H]4C)nc3c2C(C)C)cn2ncnc2c1C [Example 834]
2. CCCN(C)CC(=O)N1C[C@H](C)N(c2ccc3[nH]c(-c4cn5ncnc5c(C)c4C)c(C(C)C)c3n2)C[C@H]1C [Example 894]

[5.36, 4.97]

###

MEASUREMENT_TARGET: human TLR8 (Homo sapiens (Human), UniProt Q9NR97)
EXPERIMENT_SUMMARY: TLR8 inhibition reporter assay (HEK-Blue SEAP)
TEST_PARAMETERS: read-out: TLR8 IC50; HEK-Blue cells overexpressing human TLR8, R848 15.9 μM stimulation, SEAP reporter
pIC50: −log10 of the molar value.
Class TRUE: pIC50 at least 8. Class FALSE: pIC50 below 8.

Answered cases to consult:
MOLECULE	ASSIGNED_LABEL
CC(C)c1c(-c2cn(C)c3ncccc23)[nH]c2ccc(C3CCC(NCC(C)(C)S(C)(=O)=O)CC3)nc12 (stereo not drawn) [Example 285]	TRUE
COc1cc(-c2[nH]c3cc(C)c(C4CCC(NC5CCOC5)CC4)nc3c2C(C)C)cn2ncnc12 (stereo not drawn) [Example 328]	TRUE
COc1cc(-c2[nH]c3ccc(C4CCC(N(C)C(C)C)CC4)nc3c2C(C)C)cn2ncnc12 (stereo not drawn) [Example 168]	TRUE

Does the molecule CC(C)c1c(-c2cc(CO)c3ncnn3c2)[nH]c2ccc(C3CCC(N(C)Cc4ccc(F)cc4)CC3)nc12 (stereo not drawn) have recorded pIC50 that is 8 or more?
FALSE

Does the molecule `COc1cc(-c2[nH]c3ccc(N4CCN(CCC(F)(F)F)CC4)nc3c2C(C)C)cn2ncnc12` have recorded pIC50 that is 8 or more?
TRUE

###

MEASUREMENT_TARGET: human TLR8 (Homo sapiens (Human), UniProt Q9NR97)
EXPERIMENT_SUMMARY: TLR8 inhibition reporter assay (HEK-Blue SEAP);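 also: SEAP driven by IFN-β minimal promoter carrying NF-κB and AP-1 sites, compounds dosed 0.05 nM to 50 µM for 22 h, inhibition scaled between agonist-plus-DMSO and reference-inhibitor wells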
TEST_PARAMETERS: read-out: TLR8 IC50; HEK-Blue cells overexpressing human TLR8, SEAP reporter, R848 15.9 μM
Would you kindly list IC50 for each of these compounds?
Answers are plain numbers, in nM.

COMPOUND	QUANTITATIVE_RESULT
Cc1c(-c2[nH]c3ccc(C4CCC(NCc5cnco5)CC4)nc3c2C(C)C)cn2ncnc2c1C (stereo not shown) [Example 416]	1.2
COc1cc(-c2[nH]c3ccc(C4CN(C(C)C)C4)nc3c2C(C)C)cn2ncnc12	11
COc1cc(-c2[nH]c3ccc(OC4CCN(CC(=O)N(C)C)CC4)nc3c2C(C)C)cn2ncnc12	23
CCN(CCS(C)(=O)=O)C1CCC(c2nc3c(C(C)C)c(-c4cn5ncnc5c(C)c4C)[nH]c3cc2F)CC1 (stereo not shown) [Example 511]	4.8

For every listed record, write down its IC50.
1. COc1cc(-c2[nH]c3ccc(C4CN(CCS(C)(=O)=O)C4)nc3c2C(C)C)cn2ncnc12
2. Cc1cc(-c2[nH]c3ccc(C4CN(C)CCO4)nc3c2C(C)C)cn(C)c1=O (stereo not shown)
3. Cc1c(-c2[nH]c3ccc(C4CCN(CC(=O)N(C)C)CC4)nc3c2C(C)C)cn(C)c(=O)c1Cl

1. 26
2. 17
3. 18

For every listed record, write down its IC50.
1. Cc1c(-c2[nH]c3ccc(C4CCC(NC5CCS(=O)(=O)C5)CC4)nc3c2C(C)C)cn2ncnc2c1C (stereo not shown) [Example 470]
2. Cc1c(-c2[nH]c3ccc(N4C[C@H](C)N(C(=O)CN(C)C)[C@@H](C)C4)nc3c2C(C)C)cn2ncnc2c1C
3. COc1cc(-c2[nH]c3ccc(C4CCC(NCC#N)C4)nc3c2C(C)C)cn2ncnc12 (stereo not shown)

[6, 27, 6.7]
